molecular target: Ebola GP ectodomain (Mayinga, Zaire, 1976) with the mucin-like domain deleted (Zaire ebolavirus (Mayinga, 1976), UniProt Q05320 33-650)
Attribute measured: pKd
Quick note: pKd values are minus log10 of concentrations in mol/L.

Give a short answer stating reported pKd for mAb114 UCA VH P60A-G61D-G88E-V96A / VL V43A IgG (antibody, V domains shown) VH: EVQLVESGGGLVQPGGSLRLSCAASGFTFSSYDMHWVRQATGKGLEWVSAIGTAGDTYYADSVKGRFTISRENAKNSLYLQMNSLRAEDTAVYYCARSDRGVAGLFDSWGQGTLVTVSS VL: DIQMTQSPSSLSASVGDRVTITCRASQGISNYLAWYQQKPGKAPKLLIYAASTLQSGVPSRFSGSGSGTDFTLTISSLQPEDVATYYCQKYNSAPLTFGGGTKVEIK . 7.89

Give a short answer stating reported pKd for mAb114 UCA VH T41P-P60A-G61D-E72D-G88E-V96A / VL V43A IgG (antibody, V domains shown) VH: EVQLVESGGGLVQPGGSLRLSCAASGFTFSSYDMHWVRQAPGKGLEWVSAIGTAGDTYYADSVKGRFTISRDNAKNSLYLQMNSLRAEDTAVYYCARSDRGVAGLFDSWGQGTLVTVSS VL: DIQMTQSPSSLSASVGDRVTITCRASQGISNYLAWYQQKPGKAPKLLIYAASTLQSGVPSRFSGSGSGTDFTLTISSLQPEDVATYYCQKYNSAPLTFGGGTKVEIK . 7.82

Give a short answer stating reported pKd for mAb114 UCA VH G88E / VL V43A IgG (antibody, V domains shown) VH: EVQLVESGGGLVQPGGSLRLSCAASGFTFSSYDMHWVRQATGKGLEWVSAIGTAGDTYYPGSVKGRFTISRENAKNSLYLQMNSLRAEDTAVYYCVRSDRGVAGLFDSWGQGTLVTVSS VL: DIQMTQSPSSLSASVGDRVTITCRASQGISNYLAWYQQKPGKAPKLLIYAASTLQSGVPSRFSGSGSGTDFTLTISSLQPEDVATYYCQKYNSAPLTFGGGTKVEIK . 7.89

Give a short answer stating reported pKd for mAb114 UCA VH P60A IgG (antibody, V domains shown) VH: EVQLVESGGGLVQPGGSLRLSCAASGFTFSSYDMHWVRQATGKGLEWVSAIGTAGDTYYAGSVKGRFTISRENAKNSLYLQMNSLRAGDTAVYYCVRSDRGVAGLFDSWGQGTLVTVSS VL: DIQMTQSPSSLSASVGDRVTITCRASQGISNYLAWYQQKPGKVPKLLIYAASTLQSGVPSRFSGSGSGTDFTLTISSLQPEDVATYYCQKYNSAPLTFGGGTKVEIK . 4.40

Give a short answer stating reported pKd for mAb114 UCA VH E72D IgG (antibody, V domains shown) VH: EVQLVESGGGLVQPGGSLRLSCAASGFTFSSYDMHWVRQATGKGLEWVSAIGTAGDTYYPGSVKGRFTISRDNAKNSLYLQMNSLRAGDTAVYYCVRSDRGVAGLFDSWGQGTLVTVSS VL: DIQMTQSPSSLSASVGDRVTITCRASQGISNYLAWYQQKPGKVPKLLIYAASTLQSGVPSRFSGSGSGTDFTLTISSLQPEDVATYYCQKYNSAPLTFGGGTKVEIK . 6.70

Give a short answer stating reported pKd for mAb114 UCA VL K90Q IgG (antibody, V domains shown) VH: EVQLVESGGGLVQPGGSLRLSCAASGFTFSSYDMHWVRQATGKGLEWVSAIGTAGDTYYPGSVKGRFTISRENAKNSLYLQMNSLRAGDTAVYYCVRSDRGVAGLFDSWGQGTLVTVSS VL: DIQMTQSPSSLSASVGDRVTITCRASQGISNYLAWYQQKPGKVPKLLIYAASTLQSGVPSRFSGSGSGTDFTLTISSLQPEDVATYYCQQYNSAPLTFGGGTKVEIK . 6.21

Give a short answer stating reported pKd for mAb114 UCA VH G61D IgG (antibody, V domains shown) VH: EVQLVESGGGLVQPGGSLRLSCAASGFTFSSYDMHWVRQATGKGLEWVSAIGTAGDTYYPDSVKGRFTISRENAKNSLYLQMNSLRAGDTAVYYCVRSDRGVAGLFDSWGQGTLVTVSS VL: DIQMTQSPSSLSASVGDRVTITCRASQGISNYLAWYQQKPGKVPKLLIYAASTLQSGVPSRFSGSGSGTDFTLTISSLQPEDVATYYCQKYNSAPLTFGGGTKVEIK . 7.00

Attribution: patent US20250243261A1
